Ref: ChEMBL document CHEMBL1128383

Test: Therapeutic index(TI) expressed as ratio of ataxia ED50 to the MES ED50 was determined
Settings: read-out: TI
Entries annotated with measured selectivity ratio
recorded-metric: selectivity ratio

compound	assay-result
O=C(O)C1CN(CCCP(=O)(O)O)CCN1 (configuration not stated)	2.21
N[C@@H](Cc1cc(CP(=O)(O)O)cc(-c2cccc3ccccc23)c1)C(=O)O	2.28

* * *

Molecular target: Glutamate NMDA receptor
Experiment: Inhibition of receptor binding affinity in […] measured using LDH release
pIC50: −log10 of the molar value.
Entries annotated with measured pIC50
recorded-metric: pIC50

N[C@@H](Cc1cc(CP(=O)(O)O)cc(-c2ccccc2)c1)C(=O)O 6.00
N[C@@H](Cc1cc(CP(=O)(O)O)cc(-c2cccc3ccccc23)c1)C(=O)O 7.30
